Could you please report measured TGI for the items listed next?
- System: K-562 leukemia
- methodSummary: NCI tumour cell line growth inhibition, 48 h

[in] TGI of COC(=O)C(=NNc1ccccc1[N+](=O)[O-])C(=O)OC on K-562 leukemia?
[out] > 100 µM

[in] Which TGI is reported with K-562 leukemia for this entry: Cc1cc2nc3c(=O)[nH]c(=O)nc-3n(CC(O)C(O)C(O)CO)c2cc1N (stereo unspecified) ?
[out] > 100 µM

[in] Give recorded TGI with K-562 leukemia for the following compound: CC(=O)N(C)c1cc(NCc2ccccc2)ccc1OCc1ccccc1
[out] 63.5 µM

[in] Lab note: need TGI with K-562 leukemia for entry COc1cccc(C2c3cc4c(cc3OC(NNC(N)=O)C2C)OCO4)c1O (stereo unspecified) , please look it up.
[out] > 100 µM

[in] I'm curious: which TGI was measured for COC(O)C(=O)c1c2c(cc3c1CCC3)CCC2 (stereo unspecified) tested on K-562 leukemia?
[out] > 100 µM

[in] For the record CCC1(OC(=O)CNC)C(=O)OCc2c1cc1n(c2=O)Cc2cc3ccccc3nc2-1 (stereo unspecified) , what value of TGI is listed for K-562 leukemia?
[out] > 60.1 µM
